assay: Trypan Blue viability of the single cell suspension, lung; type: in vivo, rat; details: female, Wistar, rat, lung, inhaled, 10 ppm, lung, female, no FPG; 10 ppm inhalation, 5 days; read-out: Viability (%) (mean ± SD)
result type: viability at 5 days (%)
Enter your answer as a number in %; do not include the unit.

Return reported viability at 5 days; argument: C=CN1CCCC1=O
98

====

assay: Trypan Blue viability of the single cell suspension, lung; type: in vivo, rat; settings: female, Wistar, rat, in vivo, po, 200 mg/kg, Individual viability (%)
result type: viability at 24 h (%)
Enter your answer as a number in %; do not include the unit.

Return reported viability at 24 h; argument: CCOS(C)(=O)=O [EMS, ethyl methanesulfonate, reference compound]
99
